meta.source: ChEMBL document CHEMBL1138593

Test system: A549
test-details: Cytotoxicity against human A549 cells by sulforhodamine B assay
Format: functional
Overview of recorded Activity for various compounds
recorded-endpoint: Activity (µg/mL)

> print(dat)
                                   compound  target.system  recorded.endpoint  readout.value
1  COCOCc1cc(OC)c(OC)cc1-c1cc2cc(C)ccc2c(=O)[nH]1           A549           Activity          43.65
2       COc1ccc2c(c1)Cn1c-2cc2ccc(C)cc2c1=O           A549           Activity          45.12
3   COc1cc2c(cc1OC)-c1cc3ccc(C)cc3c(=O)n1C2           A549           Activity          24.13
4  COCOCc1cc(OC)ccc1-c1cc2cc(C)ccc2c(=O)[nH]1           A549           Activity          80.22
5  COc1cc(CO)c(-c2cc3ccc(C)cc3c(=O)[nH]2)cc1OC           A549           Activity          15.15

* * *

System: A549
test-details: Cytotoxicity against human A549 cells by sulforhodamine B assay
Format: functional
recorded-endpoint: log10(Activity) (log10 of the value in µg/mL)

> print(dat)
                                    molecule  readout.value
 1         Cc1ccc2c(=O)n3c(cc2c1)-c1ccccc1C3           1.20
 2    COc1ccc(-c2cc3ccccc3c(=O)[nH]2)c(CO)c1           0.56
 3       Cc1ccc2cc(-c3ccccc3CO)[nH]c(=O)c2c1           1.11
 4   COc1cc2c(cc1OC)-c1cc3cc(C)ccc3c(=O)n1C2           1.69
 5  COCOCc1cc(OC)c(OC)cc1-c1cc2ccccc2c(=O)[nH]1           1.21
 6  COc1ccc(-c2cc3cc(C)ccc3c(=O)[nH]2)c(CO)c1           1.29
 7         Cc1ccc2cc3n(c(=O)c2c1)Cc1ccccc1-3           1.62
 8  COc1ccc(-c2cc3ccc(C)cc3c(=O)[nH]2)c(CO)c1           1.00
 9  COc1ccc(COCc2ccccc2-c2cc3cc(C)ccc3c(=O)[nH]2)cc1           0.87
10  COCOCc1cc(OC)c(OC)cc1-c1cc2ccc(C)cc2c(=O)[nH]1           1.40
11  CC[C@@]1(O)C(=O)OCc2c1cc1n(c2=O)Cc2cc3ccccc3nc2-1 [CAMPTOTHECIN]          -1.14

* * *

Organism: Bos taurus
test-details: Inhibition of calf thymus DNA topoisomerase 1 assessed as relaxation of supercoiled Escherichia coli pBR322 DNA at 100 ug/mL after 30 mins by agarose gel electrophoresis
The source made the active and inactive calls. The calls are words filed in the database; no cut-off is given here.
Classes used: active, inactive

> print(dat)
                                    compound       cat
 1   COc1cc2c(cc1OC)-c1cc3cc(C)ccc3c(=O)n1C2  inactive
 2       COc1ccc2c(c1)Cn1c-2cc2cc(C)ccc2c1=O  inactive
 3          COc1ccc2c(c1)Cn1c-2cc2ccccc2c1=O    active
 4   COc1cc2c(cc1OC)-c1cc3ccc(C)cc3c(=O)n1C2  inactive
 5      COc1cc2c(cc1OC)-c1cc3ccccc3c(=O)n1C2  inactive
 6         Cc1ccc2cc3n(c(=O)c2c1)Cc1ccccc1-3    active
 7         Cc1ccc2c(=O)n3c(cc2c1)-c1ccccc1C3    active
 8  CC[C@@]1(O)C(=O)OCc2c1cc1n(c2=O)Cc2cc3ccccc3nc2-1 [CAMPTOTHECIN]    active
 9              O=c1c2ccccc2cc2n1Cc1ccccc1-2    active
10       COc1ccc2c(c1)Cn1c-2cc2ccc(C)cc2c1=O  inactive
